Study target: human cannabinoid receptor 1 (huCB1), full length, expressed on cells (human, UniProt P21554 1-472)
Sequence (P21554 whole entry): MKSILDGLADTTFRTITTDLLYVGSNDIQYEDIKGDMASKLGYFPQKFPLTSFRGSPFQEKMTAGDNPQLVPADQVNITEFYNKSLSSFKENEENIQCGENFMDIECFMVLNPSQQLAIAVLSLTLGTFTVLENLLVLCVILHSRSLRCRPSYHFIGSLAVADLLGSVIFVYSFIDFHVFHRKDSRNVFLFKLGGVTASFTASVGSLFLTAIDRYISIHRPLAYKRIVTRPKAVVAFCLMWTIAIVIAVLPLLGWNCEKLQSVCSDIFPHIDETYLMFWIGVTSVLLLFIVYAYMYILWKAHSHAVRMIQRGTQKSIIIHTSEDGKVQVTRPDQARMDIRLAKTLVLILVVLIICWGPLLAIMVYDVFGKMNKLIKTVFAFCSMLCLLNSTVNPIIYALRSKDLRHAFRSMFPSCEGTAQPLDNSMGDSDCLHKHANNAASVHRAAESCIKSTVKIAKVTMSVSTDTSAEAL
Assay overview: cell-based or functional assay
Quick rule: Mean IC50 (nM, n = 3), cAMP antagonist assay of at least 3 nM means 1.0, below that means 0.0.

{"Binder": "LIBC523661-1 (antibody, V domains shown, Expressed as IgG1 SEFL2 mAb) VH: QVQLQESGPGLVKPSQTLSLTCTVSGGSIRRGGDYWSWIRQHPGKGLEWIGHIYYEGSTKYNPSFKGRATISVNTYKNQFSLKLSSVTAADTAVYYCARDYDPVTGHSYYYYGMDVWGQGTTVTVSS VL: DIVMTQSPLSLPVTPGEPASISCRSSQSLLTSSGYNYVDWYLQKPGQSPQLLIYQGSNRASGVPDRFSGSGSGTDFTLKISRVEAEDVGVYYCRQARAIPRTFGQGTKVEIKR", "Assigned category": 1.0}
{"Binder": "LIBC528116-1 (antibody, V domains shown, Expressed as IgG1 SEFL2 mAb; also called 37940-4) VH: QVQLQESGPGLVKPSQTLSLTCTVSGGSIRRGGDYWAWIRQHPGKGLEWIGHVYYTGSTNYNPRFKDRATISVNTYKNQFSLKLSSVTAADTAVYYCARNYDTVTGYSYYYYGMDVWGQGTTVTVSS VL: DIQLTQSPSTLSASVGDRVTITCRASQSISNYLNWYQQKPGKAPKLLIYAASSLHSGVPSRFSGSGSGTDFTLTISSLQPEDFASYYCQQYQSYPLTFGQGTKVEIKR", "Assigned category": 0.0}
{"Binder": "LIBC527814-1 (antibody, V domains shown, Expressed as IgG1 SEFL2 mAb) VH: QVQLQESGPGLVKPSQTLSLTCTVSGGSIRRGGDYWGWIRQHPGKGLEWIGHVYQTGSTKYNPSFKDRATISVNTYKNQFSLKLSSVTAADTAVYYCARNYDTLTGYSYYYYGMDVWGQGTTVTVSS VL: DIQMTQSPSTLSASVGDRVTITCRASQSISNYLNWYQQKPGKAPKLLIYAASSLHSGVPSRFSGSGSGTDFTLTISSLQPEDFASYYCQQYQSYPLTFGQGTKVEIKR", "Assigned category": 0.0}

Data request: # check: Mean IC50 (nM, n = 3), cAMP antagonist assay of LIBC527997-1 (antibody, V domains shown, Expressed as IgG1 SEFL2 mAb) VH: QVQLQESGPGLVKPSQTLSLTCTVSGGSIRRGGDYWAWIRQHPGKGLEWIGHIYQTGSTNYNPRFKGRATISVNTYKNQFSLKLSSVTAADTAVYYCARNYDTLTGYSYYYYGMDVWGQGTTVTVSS VL: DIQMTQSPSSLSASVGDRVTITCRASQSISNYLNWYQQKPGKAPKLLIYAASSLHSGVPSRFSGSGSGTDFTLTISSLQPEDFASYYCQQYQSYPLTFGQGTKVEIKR is greater than or equal to 3 nM
Data returned: 0.0
